# target.under.test: furin, P09958;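 also: purified furin at 1:10 enzyme:substrate in 50 mM HEPES pH 7.5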
# Sequence (P09958 whole entry): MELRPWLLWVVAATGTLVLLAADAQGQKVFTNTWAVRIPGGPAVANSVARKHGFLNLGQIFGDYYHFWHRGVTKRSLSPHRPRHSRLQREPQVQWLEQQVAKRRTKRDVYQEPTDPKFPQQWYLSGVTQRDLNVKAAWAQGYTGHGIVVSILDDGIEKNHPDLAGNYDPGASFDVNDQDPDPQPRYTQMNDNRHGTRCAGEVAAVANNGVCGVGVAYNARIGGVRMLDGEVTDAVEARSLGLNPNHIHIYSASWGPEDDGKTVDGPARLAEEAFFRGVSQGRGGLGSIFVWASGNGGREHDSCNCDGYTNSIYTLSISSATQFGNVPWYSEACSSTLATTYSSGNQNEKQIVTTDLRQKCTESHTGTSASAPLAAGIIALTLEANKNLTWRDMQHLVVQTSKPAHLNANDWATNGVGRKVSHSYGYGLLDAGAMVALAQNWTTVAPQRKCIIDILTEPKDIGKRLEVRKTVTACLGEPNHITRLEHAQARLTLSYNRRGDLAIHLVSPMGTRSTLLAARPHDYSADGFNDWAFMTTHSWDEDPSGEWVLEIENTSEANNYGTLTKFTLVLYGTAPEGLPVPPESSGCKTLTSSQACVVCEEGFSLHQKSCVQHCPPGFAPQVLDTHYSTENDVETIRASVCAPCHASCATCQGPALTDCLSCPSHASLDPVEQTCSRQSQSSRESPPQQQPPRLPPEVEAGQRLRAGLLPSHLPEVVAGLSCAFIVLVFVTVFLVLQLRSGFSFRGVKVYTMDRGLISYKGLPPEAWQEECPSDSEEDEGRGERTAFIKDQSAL
# experimental.details: furin cleavage Z-score vs untreated control; higher = more cleavage, active = 3.5 or more, inactive = 1 or less, 8 variable residues between constant flanks
# protocol.conditions: 15 min
Some of the results follow. No count for the full screen is at hand.
In this exercise, the only acceptable responses are true for active, false for inactive

For CAVVSCSMSYAGNASASA [HC2037] , what call appears in the results of this test?
false

Same thing, different sequence: CADYEPPVVHAGNASASA [HC1313]
false

Okay, and CAQDPRSGRSAGNASASA [FS-846] ?
false

Now try CAAFKIMSGEAGNASASA [HC1093] .
false

Similarly, CARPPRPAQGAGNASASA [FS-2057] ?
false

Could you do the same for CARKRRSVNPAGNASASA [FS-2702] , please?
true

Now the sequence CAQMVIIKLGAGNASASA [HC628]
false

Also CAQRERSGRSAGNASASA [FS-1057] ?
true

Input CADKRRSVRIAGNASASA [FS-1669]
false

Also check CAGSMRANRIAGNASASA [FS-1128]
false

Next: CANKRRSVRFAGNASASA [FS-833]
true

Also check CAMKRRSVTMAGNASASA [FS-2126]
false

Also need CAPVLRGQAGAGNASASA [FS-3180] , thanks.
false

Let us now turn to CARVRRSTAEAGNASASA [FS-2388]
true

Query CAGAGNNTLHAGNASASA [HC447] next
false

Repeat with CAGQKRSRSRAGNASASA [FS-2862]
false

Can you handle CAEKERSKRSAGNASASA [FS-1626] next?
true

Note, next up: CARFKRWKAEAGNASASA [FS-1853]
true

And for CAPQSRGRREAGNASASA [FS-476] ?
true

Now the sequence CASTPCSMHLAGNASASA [HC2526]
false

Also need CARFKKFATEAGNASASA [FS-1700] , thanks.
false

Entry CACREVPCHRAGNASASA [HC2440] please
false

What about this sequence? CASSARNKRSAGNASASA [FS-94]
true

Next record, please: CALRSRWGRSAGNASASA [FS-1370]
true

Another: CAGENLYFQSAGNASASA [TV1]
false

Also check CAAGRRSEAEAGNASASA [FS-1877]
false

Please give the result for CAQQHRQGRSAGNASASA [FS-1391] too.
true

# repeat for CARWGRSAQGAGNASASA [FS-3130]
true
